protocol.details: qHTS screen for small molecules that inhibit ELG1-dependent DNA repair: SAR in Cell-Based Luciferin Counter Assay
run.parameters: cell-based luciferase counter-screen, luminescence; series mostly up to 45.7 µM
Records with an inconclusive call do not appear. The source made the active and inactive calls. Calls come from the whole dose curve; as a rule, active = well fitted curve in the direction sought with a large enough effect; inconclusive = small, poorly fitted or top-dose-only effect, or another doubt; inactive = no such curve, though single readings can be large or run the other way.
test.readout: outcome

Examples with their reported outcome follow.
O=C(/C=C/C#Cc1cccc(NS(=O)(=O)c2ccccc2)c1)NO: inactive
CCCC(=O)Oc1ccc2[nH]c(C(=O)c3cc4ccccc4[nH]3)cc2c1: inactive
COc1cccc2oc(-c3ccccc3)cc(=O)c12: inactive
CN(C)c1ccc(/C=C2\CCc3ccccc32)cc1: inactive
COc1ccccc1/C=C/c1nc2ccccc2o1: inactive
CC(C)CN(C)c1ccc(/C=C2\C=Cc3ccccc32)cc1: inactive
ICC[n+]1csc2ccccc21: inactive
COc1cccc([C@@H]2Oc3ccc(OC)cc3C(=O)[C@H]2OC(=O)NS(=O)(=O)c2ccc(C)cc2)c1: inactive

Recorded outcome for Cc1ccc2c(c1)C/C(=C/c1ccc(N(C)C)cc1)C2=O , please?
inactive

// outcome lookup, key: CN(C)c1cccc(-c2ccnc(N3CCC(C(N)=O)CC3)n2)c1
inactive

outcome lookup needed for CCCCCn1ncc2c3sc(C)cc3n(C)c2c1=O , thanks.
inactive
